Form field: growth (one value per entry).
tested on: HOP-62 NSCLC; assay: NCI-60 one-dose screen, 48 h (100 = growth as untreated, 0 = no growth, -100 = all killed); details: 10 µM unless noted
The panel holds about 83,000 compounds, 20% with a hit somewhere; the sample as a whole holds those more often.
Dear colleague, please return just the value in %, with no unit written.

COc1ccc2c(c1)NC(=O)CN2c1nc(C)nc2ccccc12 | 29.2

growth reading for Cc1ccc(S(=O)(=O)N2CCC(C(=O)Nc3ccc(F)cc3F)CC2)cc1 : 96.2

Record summary for COc1cc(OC)cc(-c2n[nH]nc2-c2ccc3c(c2)OCO3)c1 : reported growth = 30.3

Query COc1ccc(NC(=S)/N=c2\oc3c(OC)cccc3cc2-c2cc3ccccc3[nH]2)cc1 yields growth of 37.6

Value of growth reported for the compound O=C1C2=C(C(=O)c3c(O)ccc(O)c31)N(c1cccnc1)Cc1ccccc1O2 is -3.72

---

system: IGROV1 ovarian; test: NCI-60 one-dose screen, 48 h (100 = growth as untreated, 0 = no growth, -100 = all killed); conditions: 10 µM unless noted
The panel holds about 83,000 compounds, 20% with a hit somewhere; the sample as a whole holds those more often. Activity calls are given as the source filed them. Rule for the calls: active = growth percent below 10; inactive = the rest.
Catalogue of molecules with associated growth

Param item: O=c1oc2cc(OS(=O)(=O)c3ccccc3)c(Cl)cc2c2c1CCCCCC2 ; param system: IGROV1 ovarian; output growth: 84.3% (inactive)

Readout growth for COc1ccc(C2CC(c3cccs3)=NN2c2ccc(S(=O)(=O)NC(=O)Nc3ccc(C)cc3)cc2)cc1 (centres undefined) , test system IGROV1 ovarian, was 108% (inactive)

Item: CCCCCCCCCCCCCCCCC(Br)C(=O)O (centres undefined) | System: IGROV1 ovarian | growth: 125% (inactive)

Tested on IGROV1 ovarian, the item CC/C=C\C/C=C\C[C@H](O)C/C=C1/C(=O)C=C[C@H]1C/C=C\CCC(=O)OC showed growth equal to 37.3% [8.25 µM] (inactive)

---

tested on: SF-539 CNS; assay: NCI-60 one-dose screen, 48 h (100 = growth as untreated, 0 = no growth, -100 = all killed); conditions: 10 µM unless noted
About 83,000 compounds went through this panel and 20% of them were active in at least one assay; those are over-represented in the sample as a whole.
propertyMeasured: growth (%)
Write the number in % without appending the unit.

Known growth results, listed for orientation:
O=C(/C=C/CN1CCCCC1)Nc1cc2c(Nc3ccc(F)c(Cl)c3F)ncnc2cc1OCCOC(F)F | 16.8
COc1ccc(/C=C/C(=O)/C=C/c2cc3ccc(Cl)cc3[nH]c2=O)cc1 | 92
COc1ccc(NC(=O)c2cc3ccccc3nc2Nc2cc(OC)c(OC)c(OC)c2)cc1 | 68.3
O=C(Nc1cccc(C(F)(F)F)c1)Nc1ccc(OCc2nnc(-c3ccccc3)o2)c(F)c1 | 27.8
COc1ccc(C2CC(c3cccs3)=NN2c2ccc(S(=O)(=O)NC(=O)NCc3cccc(OC)c3)cc2)cc1 (configuration not stated) | 104
COc1cc(C2C=C(C)N=C3SC(C)=NN32)cc(OC)c1OC (configuration not stated) | 114
CCOC(=O)CC/C(C)=N\Nc1ccc([N+](=O)[O-])cc1 | 69.8
Nc1c(C(=O)Nc2c(Cl)cccc2Cl)sc2nc3c(cc12)CCCCC3 | 38.2

For reference, reported growth for COc1cc(NC(=O)CCl)ccc(=O)c1 stands at 83.5

# compound Cc1cnc(NC(=O)C(Cc2ccccc2)NC(=O)c2ccccc2)s1 (configuration not stated) ; its growth = 87

The measured growth associated with CCOC(=O)CC(C#N)(CC(=O)OCC)C(=O)OCC reads 107

growth measured on CCOC(=O)/C=C\C(=O)NC(N)=O = 108

The compound identified as O=C(CN1CCOCC1)Nc1ccc(-c2nc3ccccc3s2)cc1 registered its growth at 89.7

Noted for O=C(Nc1ccc(F)cc1)c1cc([N+](=O)[O-])ccc1O : its growth reads 47.3

The value of growth measured for the compound CC(=O)/C=C/c1cc2cc(Cl)ccc2[nH]c1=O turned out to be 85.4

Just so you know, measured growth for Cc1ccc(S(=O)(=O)NCCCNc2nccc(-c3c(-c4ccccc4)nc4sccn34)n2)cc1 came out at 82.5

---

test system: MCF7 breast; experiment: NCI-60 one-dose screen, 48 h (100 = growth as untreated, 0 = no growth, -100 = all killed); details: 10 µM unless noted
About 83,000 compounds went through this panel and 20% of them were active in at least one assay; those are over-represented in the sample as a whole.
Reported growth values for a set of compounds
Give just the numeric value; % need not be written.

// below: answered compounds
CC(=O)Nc1ccc2c(c1)/C(=C\C=C/c1ccc([N+](C)(C)C)cc1)c1ccccc1-2 | 60.4
Nc1cc2c(cc1N)-c1cc(N)c(N)cc1C2 | 93.5
Nc1ccc(S(=O)(=O)c2ccc(Cl)cc2)cc1 | 99.3
Cc1nc(Nc2cccnc2)sc1C(=O)/C=C/c1ccc(Cl)cc1 | 13.2
Oc1ccc(N=Cc2ccccc2)cc1 | 84.8

Per the records, this compound ( NC(C(=O)O)C(O)c1ccc(OCc2ccccc2)c(OCc2ccccc2)c1 (stereo unspecified) ) has growth equal to 87.3

---

test system: ACHN renal; assay: NCI-60 one-dose screen, 48 h (100 = growth as untreated, 0 = no growth, -100 = all killed); conditions: 10 µM unless noted
This is part of a sample that, as a whole, favours compounds with a hit. Of some 83,000 tested, about 20% had one in any assay. Activity calls are given as the source filed them. The calls were made as follows: active = growth percent below 10; inactive = the rest.
propertyMeasured: growth

// below: answered compounds
COc1cc(Cn2c(SCC(=O)Nc3cc(OC)c(OC)c(OC)c3)nc3ccccc3c2=O)cc(OC)c1OC | 33.4% (inactive)
O=C(Nc1ccc(OCc2nnc(-c3ccc(Cl)cc3)o2)c(F)c1)Nc1ccc(Cl)c(Cl)c1 | 3.37% (active)
O=[N+]([O-])c1ccc(S(=O)(=O)N2CCN(c3ccnc4cc(Cl)ccc34)CC2)c([N+](=O)[O-])c1 | 84.3% (inactive)
Cc1cc(C)c(S(=O)(=O)N2CCN(c3cc4c(cc3F)c(=O)c(C(=O)O)cn4C3CC3)CC2)c(C)c1 | 51.3% (inactive)
COc1ccc(C(=O)c2cc(OC)c(OC)c(OC)c2)cc1/C=C/C(=O)c1ccc2c(c1)OCO2 | -76.4% (active)
O=c1oc2c([nH]c3ccc4ccccc4c32)c2ccccc12 | 110% (inactive)
COc1ccc(C(=O)c2cc(OC)c(OC)c(OC)c2)cc1/C=C/C(=O)c1ccc(O)cc1 | -62.8% (active)
COc1ccc(C(=O)/C=C/c2cccc([N+](=O)[O-])c2)c(OC)c1 | -43.5% (active)
CN(C)C1CCC(NC2=CC(=O)C=CC2=O)CC1 (stereo not drawn) | 99.2% (inactive)
O=C(Nc1ccc(I)cc1)c1cc([N+](=O)[O-])ccc1O | 48.8% (inactive)

Briefly, growth measured for O=C(CCl)NCCNc1nccc(Nc2ccc(S(=O)(=O)Nc3ccccn3)cc2)n1 : 25.6% (inactive)

According to the records, this compound CCN1C(=O)N(CC)C2Nn3c(s/c(=C\c4cccc(F)c4)c3=O)=NC21 (stereo not drawn) displays growth of 66.7% (inactive)

The recorded growth for entry C#CCN1C(=O)/C(=c2\sc3n(c2=O)C2C(NN=3)N(CC)C(=O)N2CC)c2ccccc21 (stereo not drawn) equals 19.8% (inactive)

---

test system: SF-268 CNS; test: NCI-60 one-dose screen, 48 h (100 = growth as untreated, 0 = no growth, -100 = all killed); conditions: 10 µM unless noted
This is part of a sample that, as a whole, favours compounds with a hit. Of some 83,000 tested, about 20% had one in any assay.
Label scheme for growth: lower than 90% is N, 90% and above is Y.

For orientation, consider the following solved cases.
Cc1nc2sccn2c1-c1csc(Nc2ccccc2Cl)n1 | N
O=S(=O)(NCCCNc1cc(-c2cn(-c3ccccc3)nc2-c2cccc(O)c2)ccn1)c1ccc(Br)cc1 | N
COc1cc(C(=O)CCCl)ccc1O | Y

Could you please find out whether O=P([O-])(O)OP(=O)([O-])O.[NH-][C@H]1CCCC[C@@H]1[NH-].[OH-].[OH-].[Pt+4] has growth that meets 90% or exceeds it?
Y

Textbook exercise: given the entry CN=S(=O)(NC(=O)c1ccc(Cl)cc1Cl)c1ccc(Br)s1 (stereo not drawn) , state whether its growth is greater than or equal to 90%.
Y

Item COc1ccc(C2NC3=C(CCCC3)C(C#N)(C#N)C2(C#N)C#N)cc1 (stereo not drawn) with growth of 90% or above?
Y

Item CCN(CC)CCCC(C)N=c1cc(Nc2cc(=NC(C)CCCN(CC)CC)c3cc(OC)ccc3o2)oc2ccc(OC)cc12 (stereo not drawn) with growth of 90% or above?
N

Record COc1cccc(NC(=O)Cn2cc3c(=O)oc4ccccc4c3n2)c1 ; criterion: growth no lower than 90%. Met?
Y

Is growth for O=C(Cc1c(F)cccc1Cl)Nc1ccc(S(=O)(=O)Nc2ncccn2)cc1 at or above 90%?
Y

Check if growth >= 90% (inclusive). Item: O=S(=O)(c1ccccc1)n1ccc(-c2ccc3c(c2)CCO3)n1
Y

Is it the case that COc1ncc(-c2ccc3ncnc(Nc4cccc(Cl)c4)c3c2)cc1NS(=O)(=O)C1CC1 has growth reaching or exceeding 90%?
N

Please check the record CS(=O)(=O)N(c1cc(-c2ccc3ncnc(Nc4cccc(Cl)c4)c3c2)cnc1Cl)S(C)(=O)=O and state if its growth is at or above 90%.
N

Confirm if growth reported for the compound COc1ccc(/C=C/C(=O)/C=C/c2cc3ccc(Cl)cc3[nH]c2=O)cc1 is 90% or above.
N

Check this compound for growth at or above 90%: CCCCC[C@@H]1Cc2cc(O)c(C(=O)O)c3c2[C@H](C[C@@]2(CCCO2)O3)O1
Y

Does the reported growth for CCN1C(=O)N(CC)C2C1NN=c1s/c(=C3\C(=O)N(C4CCCC4)c4ccccc43)c(=O)n12 (stereo not drawn) fall at or above the 90% mark?
N

Is reported growth greater than or equal to 90% here: COc1cccc(-c2nc3sccn3c2-c2ccnc(NCCCNS(=O)(=O)c3ccc(F)cc3)n2)c1
N

Tell me whether growth is at least 90% here: Cc1sc2nc(CSc3nnc(-c4ccco4)o3)[nH]c(=O)c2c1C
Y

Please check the record COc1ccc(C2CC(c3cccs3)=NN2c2ccc(S(=O)(=O)NC(=O)NCc3cccc(OC)c3)cc2)cc1 (stereo not drawn) and state if its growth is at or above 90%.
Y

Identify whether the reported growth of the following compound is 90% or greater: COc1ccc(/C=C/C(=O)c2cc(OC)c(OC)c(OC)c2)cc1OCc1cn(Cc2ccc(F)cc2)nn1
N

Item CCCCCCCCCCCCCCCCC(Br)C(=O)O (stereo not drawn) with growth of 90% or above?
Y

API: above_or_equal(metric=growth, cutoff=90%) for item O=C(CC(O)c1ccncc1)c1ccccc1 (stereo not drawn)
N

Please check the record NC(=O)c1ccc2c(c1)OCO2 and state if its growth is at or above 90%.
Y

Evaluate CCNC(=O)CCCCC(=O)c1c(C)[nH]c(/C=C2\N=C(c3ccc[nH]3)C=C2OC)c1C : growth at minimum 90%?
N

Attribution: PubChem BioAssay (NCI)
